target: HLA-A*0206 (human)
experiment.notes: competitive inhibition, purified HLA
run.parameters: remark: other sources report otherwise
measurement.label: pIC50
Please note pIC50 is a logarithmic value: minus log10 of concentration in mol/L. Answer with that number alone.

Reported pIC50 of YLSGANLNV [CEA.605V9] : 7.10
